IC50 listing for selected compounds.
Tested on: recombinant human mTOR (Homo sapiens (Human))
Sequence (P42345 1360-2549): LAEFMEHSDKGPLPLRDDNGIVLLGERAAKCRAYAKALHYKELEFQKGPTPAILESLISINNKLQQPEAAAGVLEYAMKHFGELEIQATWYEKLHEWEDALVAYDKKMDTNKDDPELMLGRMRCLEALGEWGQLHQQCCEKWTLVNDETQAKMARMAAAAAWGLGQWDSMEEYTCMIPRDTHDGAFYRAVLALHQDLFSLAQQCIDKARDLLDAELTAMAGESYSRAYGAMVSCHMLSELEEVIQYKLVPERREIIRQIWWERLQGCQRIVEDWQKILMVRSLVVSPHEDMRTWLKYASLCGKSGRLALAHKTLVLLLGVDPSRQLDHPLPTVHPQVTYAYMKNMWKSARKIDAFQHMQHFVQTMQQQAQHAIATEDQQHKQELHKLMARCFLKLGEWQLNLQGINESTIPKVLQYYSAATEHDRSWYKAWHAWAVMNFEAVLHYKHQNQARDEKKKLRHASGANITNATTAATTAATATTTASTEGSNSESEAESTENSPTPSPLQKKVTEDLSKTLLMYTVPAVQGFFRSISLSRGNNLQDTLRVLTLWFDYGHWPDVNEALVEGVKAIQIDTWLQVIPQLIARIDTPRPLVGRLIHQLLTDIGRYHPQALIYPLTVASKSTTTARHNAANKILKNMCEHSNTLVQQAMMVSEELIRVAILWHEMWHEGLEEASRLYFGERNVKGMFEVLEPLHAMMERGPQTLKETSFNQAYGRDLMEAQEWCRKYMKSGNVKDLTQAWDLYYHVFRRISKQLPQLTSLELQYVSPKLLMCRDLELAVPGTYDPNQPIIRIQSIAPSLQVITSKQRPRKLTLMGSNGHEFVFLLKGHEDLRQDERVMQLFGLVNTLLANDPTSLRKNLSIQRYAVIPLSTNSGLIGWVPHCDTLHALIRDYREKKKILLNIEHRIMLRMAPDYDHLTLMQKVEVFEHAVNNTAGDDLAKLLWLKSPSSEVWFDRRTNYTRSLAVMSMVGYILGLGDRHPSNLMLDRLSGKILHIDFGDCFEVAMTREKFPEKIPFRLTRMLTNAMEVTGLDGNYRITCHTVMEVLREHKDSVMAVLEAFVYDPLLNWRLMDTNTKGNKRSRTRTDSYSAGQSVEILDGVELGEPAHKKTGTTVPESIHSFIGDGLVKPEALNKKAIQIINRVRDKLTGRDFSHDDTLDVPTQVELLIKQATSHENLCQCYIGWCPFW
Experiment notes: Test 1: mTOR ATP-binding assay based on TR-FRET
Assay context: GST-tagged truncated human mTOR, tracer-314, TR-FRET
Endpoint name: IC50 (µM)

# Structure smiles, Observed value
rows = [
    ("C[C@@H]1COCCN1c1nc(N2CCO[C@@H](CO)C2)nc2[nH]c(-c3cccc4[nH]ccc34)nc12", 0.067),
    ("COC(=O)c1cc(-c2nc3c(N4CCOC[C@H]4C)nc(N4CCOC[C@H]4C)nc3[nH]2)c2cc[nH]c2c1", 0.533),
    ("C[C@@H]1COCCN1c1nc(N2CCOC[C@H]2C)c2nc(-c3ccccn3)[nH]c2n1", 0.139),
    ("C[C@@H]1COCCN1c1nc(N2CCO[C@H](CO)C2)nc2[nH]c(-c3cccc4[nH]ccc34)nc12", 0.38),
    ("c1ccc(-c2nc3c(N4CCOCC4)nc(N4CCOCC4)nc3[nH]2)nc1", 0.86),
    ("C[C@@H]1COCCN1c1nc(N2CCCOCC2)nc2[nH]c(-c3cccc4[nH]ccc34)nc12", 0.164),
    ("C[C@@H]1COCCN1c1nc(N2CCOC[C@H]2C)c2nc(-c3cc(CO)cc4[nH]ccc34)[nH]c2n1", 0.066),
]

* * *

System: H4 mCherry-GFP-LC3 cells
Experiment notes: Test 3: Autophagy assay (mCherry-GFP-LC3 reporter, high-content imaging)
Type: cell-based, human
Assay context: Homo sapiens, 16-18 h treatment, mCherry-positive LC3 puncta/cell
pEC50: −log10 of the molar value.

# Structure smiles, pEC50
measured = [
    ("C[C@@H]1COCCN1c1nc(N2CCOC[C@H]2C)c2nc(-c3ccccn3)[nH]c2n1", 6.45),
    ("C[C@@H]1COCCN1c1nc(N2CCC(C(F)(F)F)CC2)nc2[nH]c(-c3cccc4[nH]ccc34)nc12", 5.77),
    ("CC[C@@H]1COCCN1c1nc(N2CCOC[C@H]2C)c2nc(-c3cccc4[nH]ccc34)[nH]c2n1", 6.12),
    ("C[C@@H]1COCCN1c1nc(N2CCOC[C@H]2C)c2nc(-c3cc[nH]n3)[nH]c2n1", 5.82),
    ("C[C@@H]1COCCN1c1nc(N2CCC23CCOCC3)nc2[nH]c(-c3cccc4[nH]ccc34)nc12", 6.52),
    ("C[C@H]1COCCN1c1nc(N2CCOC[C@@H]2C)c2nc(-c3cc[nH]n3)[nH]c2n1", 5.84),
]

* * *

pIC50 listing for selected compounds.
Tested on: recombinant human mTOR (Homo sapiens (Human))
Experiment notes: Test 1: mTOR ATP-binding assay based on TR-FRET
Assay context: GST-tagged truncated human mTOR, tracer-314, TR-FRET
pIC50: −log10 of the molar value.
Endpoint name: pIC50

# Structure smiles, Endpoint name, Observed value
records = [
    ("CC(C)[C@@H]1COCCN1c1nc(N2CCOC[C@H]2C)c2nc(-c3cccc4[nH]ccc34)[nH]c2n1", "pIC50", 6.91),
    ("C[C@@H]1COCCN1c1nc(N2CCN(C3COC3)CC2)nc2[nH]c(-c3cccc4[nH]ccc34)nc12", "pIC50", 7.04),
    ("C[C@@H]1CN(c2nc(N3CCOC[C@H]3C)c3nc(-c4cccc5[nH]ccc45)[nH]c3n2)C[C@H](C)O1", "pIC50", 7.11),
    ("C[C@@H]1COCCN1c1nc(N2CCC(C(F)(F)F)CC2)nc2[nH]c(-c3cccc4[nH]ccc34)nc12", "pIC50", 5.82),
    ("C[C@@H]1COCCN1c1nc(N2CCOC[C@@H]2C)nc2[nH]c(-c3cc[nH]n3)nc12", "pIC50", 6.98),
    ("C[C@@H]1COCCN1c1nc(N2CCOC[C@H]2C)c2nc(-c3cnc(N)nc3)[nH]c2n1", "pIC50", 5.88),
    ("C[C@H]1COCCN1c1nc(N2CCOC[C@@H]2C)c2nc(-c3ccccn3)[nH]c2n1", "pIC50", 5.99),
    ("C[C@@H]1COCCN1c1nc(N2CCOC[C@H]2C)c2nc(-c3ccc(N)nc3)[nH]c2n1", "pIC50", 6.12),
]
